Consider the following compounds; for each one, report its relative viability.
# Test system: NCI-H1703
# procedure-text: relative viability (nuclei count vs DMSO), 5 days (fraction); higher = more cells survive
# run-conditions: first compound 0.08 µM
Answers are plain numbers.

- compound: "Oc1nc(-c2ccc(C(F)(F)F)cc2)nc2c1CSCC2 [XAV939] + C[C@@H](Oc1cc(-c2cnn(C3CCNCC3)c2)cnc1N)c1c(Cl)ccc(F)c1Cl [Crizotinib] (partner 1 µM)"
  metric-name: "relative viability"
  numeric-value: 0.787
- compound: "C=C1C(=O)O[C@@H](CCCCCCCC)[C@@H]1C(=O)O [C-75] + O=C(c1cc(Cc2n[nH]c(=O)c3ccccc23)ccc1F)N1CCN(C(=O)C2CC2)CC1 [Olaparib] (partner 8 µM)"
  metric-name: "relative viability"
  numeric-value: 0.416
- compound: "Oc1nc(-c2ccc(C(F)(F)F)cc2)nc2c1CSCC2 [XAV939] + C[C@]1(O)C[C@@H](c2nc(-c3ccc4ccc(-c5ccccc5)nc4c3)c3c(N)nccn32)C1 [Linsitinib] (partner 1 µM)"
  metric-name: "relative viability"
  numeric-value: 1.31
- compound: "C=C1C(=O)O[C@@H](CCCCCCCC)[C@@H]1C(=O)O [C-75] + C[C@@H](Oc1cc(-c2cnn(C3CCNCC3)c2)cnc1N)c1c(Cl)ccc(F)c1Cl [Crizotinib] (partner 1 µM)"
  metric-name: "relative viability"
  numeric-value: 0.688
- compound: "C=C1C(=O)O[C@@H](CCCCCCCC)[C@@H]1C(=O)O [C-75] + C[C@]1(O)C[C@@H](c2nc(-c3ccc4ccc(-c5ccccc5)nc4c3)c3c(N)nccn32)C1 [Linsitinib] (partner 1 µM)"
  metric-name: "relative viability"
  numeric-value: 0.752

Entry under test: C=C1C(=O)O[C@@H](CCCCCCCC)[C@@H]1C(=O)O [C-75] + Cc1nc(NC(=O)N2CCC[C@H]2C(N)=O)sc1-c1ccnc(C(C)(C)C(F)(F)F)c1 [Alpelisib] (partner 2 µM) . Its relative viability was 0.337

Data origin: the supplement of paper PMC10307832
